SYSTEM_TESTED: Delta-type opioid receptor (Homo sapiens, UniProt P41143)
Sequence (P41143 whole entry): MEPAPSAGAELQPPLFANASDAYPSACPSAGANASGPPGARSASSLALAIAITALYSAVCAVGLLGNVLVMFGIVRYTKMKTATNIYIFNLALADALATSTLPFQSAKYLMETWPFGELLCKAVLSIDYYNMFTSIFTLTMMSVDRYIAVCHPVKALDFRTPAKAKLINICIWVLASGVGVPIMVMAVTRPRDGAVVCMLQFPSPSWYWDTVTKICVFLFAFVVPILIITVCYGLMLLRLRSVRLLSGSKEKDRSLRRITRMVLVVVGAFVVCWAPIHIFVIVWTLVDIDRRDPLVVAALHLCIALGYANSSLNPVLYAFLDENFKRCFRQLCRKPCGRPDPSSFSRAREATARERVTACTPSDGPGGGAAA
TEST_DETAILS: ChEBML_145338
pIC50: −log10 of the molar value.
PARAMETER_MEASURED: pIC50

>>> data_value("O=c1c(-c2ccccc2)cccn1C(CN1CCCC1)c1ccccc1 (stereo unspecified)")
"< 5.00"

// data source = BindingDB's records for doi:10.1016/s0960-894x(03)00033-7
